Ref: patent US20150098955A1

Target: T1, Human CD40L, membrane form, on cells (Jurkat D1.1 cells; activated primary human T cells) (human, UniProt P29965 1-261)
T1 sequence: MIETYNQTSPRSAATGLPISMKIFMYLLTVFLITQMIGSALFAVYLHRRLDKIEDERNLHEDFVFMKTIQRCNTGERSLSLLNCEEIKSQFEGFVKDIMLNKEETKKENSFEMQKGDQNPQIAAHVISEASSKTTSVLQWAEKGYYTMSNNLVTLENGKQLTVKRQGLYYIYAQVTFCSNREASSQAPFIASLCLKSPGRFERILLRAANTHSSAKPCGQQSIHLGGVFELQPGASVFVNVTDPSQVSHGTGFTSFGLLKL
Assay: cell-based or functional assay
readout: PBMC IC50 (nM)

Illustrative cases are given below, each with its answer.
[[record]]
binder = "Clone 341 - Affinity Mature variant (designed binder) AIEVKDVTDTTALITWSDDFADYVWCELTYGIKDVPGDRTTIDLWWHSAWYSIGNLKPDTEYEVSLICRRGDMSSNPAKETFTTGGGTLGHHHHHHHH"
readout = "PBMC IC50"
experimental_value = 0.7

[[record]]
binder = "Clone 349 - Affinity Mature variant (designed binder, Secreted His8-tagged form) AIEVKDVTDTTALITWSDEHAEFIGCELTYGIKDVPGDRTTIDLWWHSAWYSIGNLKPDTEYEVSLICRRGDMSSNPAKETFTTGGGTLGHHHHHHHH"
readout = "PBMC IC50"
experimental_value = 38.2

[[record]]
binder = "Clone 347 - Affinity Mature variant (designed binder, Secreted His8-tagged form) AIEVKDVTDTTALITWSDEVGQYVGCELTYGIKDVPGDRTTIDLWYHMAWYSIGNLKPDTEYEVSLICRRGDMSSNPAKETFTTGGGTLGHHHHHHHH"
readout = "PBMC IC50"
experimental_value = 11

[[record]]
binder = "Clone 340 - Affinity Mature variant (designed binder, Secreted His8-tagged form) AIEVKDVTDTTALITWSDDFDNYEWCELTYGIKDVPGDRTTIDLWYHMAWYSIGNLKPDTEYEVSLICRRGDMSSNPAKETFTTGGGTLGHHHHHHHH"
readout = "PBMC IC50"
experimental_value = 0.7


A: Clone 345 - Affinity Mature variant (designed binder, Secreted His8-tagged form) AIEVKDVTDTTALITWSDDFAEYVGCELTYGIKDVPGDRTTIDLWWHSAWYSIGNLKPDTEYEVSLICRRGDMSSNPAKETFTTGGGTLGHHHHHHHH
B: Clone 346 - Affinity Mature variant (designed binder, Secreted His8-tagged form) AIEVKDVTDTTALITWSDDFEEYVVCELTYGIKDVPGDRTTIDLWWHSAWYSIGNLKPDTEYEVSLICRRGDMSSNPAKETFTTGGGTLGHHHHHHHH
C: Clone 343 - Affinity Mature variant (designed binder, Secreted His8-tagged form) AIEVKDVTDTTALITWLDDWGSYHVCELTYGIKDVPGDRTTIDLWYHQAWYSIGNLKPDTEYEVSLICRRGDMSSNPAKETFTTGGGTLGHHHHHHHH
D: Clone 309FGwt - Parental clone with 'humanized' FG loop (designed binder) AIEVKDVTDTTALITWSDEFGHYDGCELTYGIKDVPGDRTTIDLWWHSAWYSIGNLKPDTEYEVSLICRRGDMSSNPAKETFTTGGGTLGHHHHHHHH
E: Clone 344 - Affinity Mature variant (designed binder) AIEVKDVTDTTALITWSDEVGDYVVCELTYGIKDVPGDRTTIDLWYHMAWYSIGNLKPDTEYEVSLICRRGDMSSNPAKETFTTGGGTLGHHHHHHHH
Rank order required: PBMC IC50, descending. Arrange the labels as the request states and list them.
D, A, B, E, C
